Ki, Coagulation factor X (Homo sapiens, UniProt P00742): measured values
PARAMETER: Ki (nM)

Some solved cases for reference:
{"MOL_SMILES": "Cc1ccc(NC(=O)c2sc3ccccc3c2Cl)c(C(=O)Nc2ccccn2)c1", "PARAMETER": "Ki", "NUMERIC_RESULT": 30}
{"MOL_SMILES": "O=C(Nc1ccc(Cl)cc1)c1ccc(C(F)(F)F)cc1NC(=O)c1sc2ccccc2c1Cl", "PARAMETER": "Ki", "NUMERIC_RESULT": 100}
{"MOL_SMILES": "Cc1ccc(NC(=O)c2ccc3ccccc3c2)c(C(=O)Nc2ccc(Cl)cc2)c1", "PARAMETER": "Ki", "NUMERIC_RESULT": 78}
{"MOL_SMILES": "COc1c(Br)csc1C(=O)Nc1ccc(C)cc1C(=O)Nc1ccc(Cl)cc1", "PARAMETER": "Ki", "NUMERIC_RESULT": 54}
{"MOL_SMILES": "Cc1ccc(C(=O)Nc2ccc(Cl)cc2)c(NC(=O)c2sc3ccccc3c2Cl)c1", "PARAMETER": "Ki", "NUMERIC_RESULT": 7.2}

(a) COc1cc(Cl)cc(C(=O)Nc2ccc(Cl)cc2)c1NC(=O)c1sc2ccccc2c1Cl
(b) COc1c(C(=O)Nc2ccc(C)cc2C(=O)Nc2ccc(Cl)cc2)sc2ccccc12
Q. // returns a or b , whichever has the lower Ki Mark your answer with the label of the selected entry.
A. a

(1) Cc1ccc(NC(=O)c2sc3ccccc3c2Cl)c(C(=O)Nc2ccc(N)cc2)c1
(2) O=C(Nc1ccc(Cl)cc1)c1ccc(Cl)cc1NC(=O)c1sc2ccccc2c1Cl
(3) Cc1ccc(NC(=O)c2sc3ccccc3c2Cl)c(C(=O)Nc2ccc(Cl)cn2)c1
(4) O=C(Nc1ccc(Cl)cc1)c1cccc(O)c1NC(=O)c1sc2ccccc2c1Cl
Q. Ascending by Ki, please. Sort the labels as requested; that list is your answer.
A. 3, 4, 2, 1
(3: 2.3 nM, 4: 18 nM, 2: 26 nM, 1: 280 nM)

====

molecular target: UniProt:P00742
PARAMETER: Ki (nM)

{"MOL_SMILES": "Cc1ccc(NC(=O)c2sc3ccccc3c2O)c(C(=O)Nc2ccc(Cl)cc2)c1", "Ki / nM": 4400}

(I) Cc1ccc(NC(=O)c2scc(S(C)(=O)=O)c2Cl)c(C(=O)Nc2ccc(Cl)cc2)c1
(II) COc1cccc(C(=O)Nc2ccc(Cl)cc2)c1NC(=O)c1sc2ccccc2c1Cl
(III) Cc1ccc(NC(=O)c2sc3ccccc3c2Cl)c(C(=O)Nc2cccnc2)c1
Q. Please rank these compounds by Ki in descending order. Sort the labels as requested; that list is your answer.
A. III, II, I
(III: 210 nM, II: 22 nM, I: 14 nM)

====

Each entry below carries its reported Ki app.
target: Cationic trypsin (Bos taurus); experiment: Inhibition constant against bovine trypsin

Some solved cases for reference:
{"MOL_SMILES": "Cc1ccc(NC(=O)c2ccc3ccccc3c2)c(C(=O)Nc2ccc(Cl)cc2)c1", "Ki app": "> 5 µM"}
{"MOL_SMILES": "Cc1ccc(NC(=O)c2sc3ccccc3c2Cl)c(C(=O)Nc2ccc(C(=O)O)cc2)c1", "Ki app": "> 5 µM"}

Result for "Cc1cccc(NC(=O)c2sc3ccccc3c2Cl)c1C(=O)Nc1ccc(Cl)cc1" , tested on Cationic trypsin (Bos taurus), Ki app: > 5 µM

Result for "Cc1ccc(NC(=O)c2sc3ccccc3c2C)c(C(=O)Nc2ccc(F)cc2)c1" , tested on Cationic trypsin (Bos taurus), Ki app: > 5 µM

Result for "Cc1ccc(NC(=O)c2cccnc2C)c(C(=O)Nc2ccc(Cl)cc2)c1" , tested on Cationic trypsin (Bos taurus), Ki app: > 5 µM

====

Each entry below carries its reported Ki app.
target: Cationic trypsin (Bos taurus); test: Inhibition constant against bovine trypsin

{"MOL_SMILES": "Cc1ccc(NC(=O)c2sc3ccccc3c2Cl)c(C(=O)Nc2cccnc2)c1", "SYSTEM_TESTED": "Cationic trypsin (Bos taurus)", "Ki app": "> 5 µM"}
{"MOL_SMILES": "COc1ccc(NC(=O)c2cc(C)ccc2NC(=O)c2sc3ccccc3c2Cl)cc1", "SYSTEM_TESTED": "Cationic trypsin (Bos taurus)", "Ki app": "> 5 µM"}
{"MOL_SMILES": "O=C(Nc1ccc(Cl)cc1)c1cccc(Cl)c1NC(=O)c1sc2ccccc2c1Cl", "SYSTEM_TESTED": "Cationic trypsin (Bos taurus)", "Ki app": "> 5 µM"}

Now, please, on to the next molecule.
// sample "Cc1ccc(NC(=O)c2sc3ccccc3c2Cl)c(C(=O)Nc2ccccn2)c1" , its Ki app was > 5 µM

====

target: UniProt P00742
pKi: −log10 of the molar value.
PARAMETER: pKi

{"MOL_SMILES": "Nc1ccc(NC(=O)c2sc3ccccc3c2Cl)c(C(=O)Nc2ccc(Cl)cc2)c1", "pKi": 7.80}
{"MOL_SMILES": "O=C(Nc1ccc(Cl)cc1)c1ccc(F)cc1NC(=O)c1sc2ccccc2c1Cl", "pKi": 7.82}
{"MOL_SMILES": "O=C(Nc1ccc(Cl)cc1)c1cc(O)ccc1NC(=O)c1sc2ccccc2c1Cl", "pKi": 7.14}

(A) Cc1cc(NC(=O)c2sc3ccccc3c2Cl)c(C(=O)Nc2ccc(Cl)cc2)cc1Cl
(B) Cc1ccc(NC(=O)c2sc3ccccc3c2C)c(C(=O)Nc2ccc(F)cc2)c1
Q. // returns A or B , whichever has the lower pKi Mark your answer with the label of the selected entry.
A. B
